- target of assay: MAP kinase p38 (Homo sapiens, UniProt O15264+Q15759+Q16539+P53778)
- protocol: Inhibition of p38 MAPK (unknown origin) using ATF2 as substrate measured after 15 by ELISA
value kind: IC50 (nM)
// units = nM; emit number, no label

Here is how some compounds turned out for IC50.
compound="COc1ccc(C2C=C(c3c(C)oc4c(OC)c5occc5c(OC)c4c3=O)ON2)cc1OC (stereo not drawn)" value_kind=IC50 endpoint_value=1090
compound="COc1c2occc2c(OC)c2c(=O)c(C3=NN(c4ccccc4)C(c4ccc(F)cc4)C3)c(C)oc12 (stereo not drawn)" value_kind=IC50 endpoint_value=1090
compound="COc1ccc(C2CC(c3c(C)oc4c(OC)c5occc5c(OC)c4c3=O)=NN2C(C)=O)cc1OC (stereo not drawn)" value_kind=IC50 endpoint_value=670
compound=COc1ccc(-c2cc(-c3c(C)oc4c(OC)c5occc5c(OC)c4c3=O)[nH]c(=N)c2C#N)cc1OC value_kind=IC50 endpoint_value=310
compound=COc1ccc(-c2cc(-c3c(C)oc4c(OC)c5occc5c(OC)c4c3=O)nc(=S)[nH]2)cc1OC value_kind=IC50 endpoint_value=1390

// lookup IC50 for COc1c2occc2c(OC)c2c(=O)c(C3=CC(c4ccc(F)cc4)NO3)c(C)oc12 (stereo not drawn) 860

Quick one: COc1ccc(-c2cc(-c3c(C)oc4cc5occc5c(OC)c4c3=O)[nH]c(=N)c2C#N)cc1OC 720

Quick one: COc1c2occc2c(OC)c2c(=O)c(-c3cc(-c4ccc(F)cc4)c(C#N)c(=N)[nH]3)c(C)oc12 630

---

- target of assay: MAP kinase p38 (Homo sapiens, UniProt O15264+Q15759+Q16539+P53778)
- protocol: Inhibition of p38 MAPK (unknown origin) using ATF2 as substrate measured after 15 by ELISA
value kind: IC50 (nM)
// units = nM; emit number, no label

Here is how some compounds turned out for IC50.
smiles_repr=COc1c2ccoc2cc2oc(C)c(-c3cc(-c4ccc(F)cc4)c(C#N)c(=N)[nH]3)c(=O)c12 target_of_assay="MAP kinase p38 (Homo sapiens, UniProt O15264+Q15759+Q16539+P53778)" endpoint_value=190
smiles_repr=COc1c2ccoc2cc2oc(C)c(-c3cc(-c4ccc(F)cc4)c(C#N)c(=O)[nH]3)c(=O)c12 target_of_assay="MAP kinase p38 (Homo sapiens, UniProt O15264+Q15759+Q16539+P53778)" endpoint_value=230

Okay, next one:
// lookup IC50 for COc1c2occc2c(OC)c2c(=O)c(-c3cc(-c4ccc(F)cc4)[nH]c(=S)n3)c(C)oc12 380
